Below is a list of entries, each paired with its recorded LD50 value.
- EXPERIMENT DESCRIPTION: Acute toxicity determined in mice by an LD50 test when administered perorally
- Type: organism-based
- SETTINGS: mouse, in vivo, po
Just the number please, in mg/kg, no unit attached.

Value of LD50 reported for the molecule Nc1nc(N)c2c(F)cccc2n1 is 489

Could you now consider this next molecule?
The measured LD50 associated with Nc1nc(N)c2c(Br)cccc2n1 reads 271

----------
- EXPERIMENT DESCRIPTION: Acute toxicity determined in mice by an LD50 test when administered peritoneally
- Type: organism-based
- SETTINGS: mouse, in vivo, ip
MEASURED PARAMETER: LD50 (mg/kg)
Lab book: enter the figure in mg/kg, no units written.

Looking up Nc1ncnc2ccccc12 [4-AMINOQUINAZOLINE] , I see its LD50 listed as 584

----------
Reported pKa by item:
- EXPERIMENT DESCRIPTION: Dissociation constant was determined using UV method
- Format: physicochemical
Answer with a bare number; do not write a unit.

Sample records with pKa:
pKa recorded for this molecule, Cc1cccc2nc(N)nc(N)c12 , is 8.19

The measured pKa associated with Nc1nc(N)c2c([N+](=O)[O-])cccc2n1 reads 6.24

get_value(item= Nc1nc(N)c2c(Cl)cccc2n1 , readout=pKa) returns 7.22

So, COc1cccc2nc(N)nc(N)c12 ? Its pKa was 8.32

Query Nc1nc(N)c2c(F)cccc2n1 yields pKa of 7.44

// field: pKa; key: CCSc1cccc2nc(N)nc(N)c12 ; value = 7.87

---
Entry NC(=O)c1cccc2nc(N)nc(N)c12 ; pKa = 7.22

According to the records, this molecule Nc1nc(N)c2ccccc2n1 displays pKa of 8.08

----------
- System: Escherichia coli
- EXPERIMENT DESCRIPTION: Antibacterial activity (10 e-6 log (1/MIC) towards Escherichia coli
- Type: functional
Threshold 1: Log 1/MIC strictly smaller gives condition met, otherwise condition not met.

### Prompt Say whether its Log 1/MIC is strictly beneath 1. Entry: CCCOc1cccc2nc(N)nc(N)c12
### Response condition not met

### Prompt Consider CN(C)c1cccc2nc(N)nc(N)c12 . Does its Log 1/MIC lie strictly below 1?
### Response condition met

More entries:
### Prompt Input NC(=O)c1cccc2nc(N)nc(N)c12 ; condition: Log 1/MIC strictly below 1. Does it hold?
### Response condition met

### Prompt Answer whether the compound CCCCCCOc1cccc2nc(N)nc(N)c12 has Log 1/MIC strictly less than 1
### Response condition met

### Prompt is_below(Log 1/MIC, 1) for CS(=O)(=O)c1cccc2nc(N)nc(N)c12 ?
### Response condition met

### Prompt Is 1 strictly greater than the compound's reported Log 1/MIC? compound: Nc1nc(N)c2c(Cl)cccc2n1
### Response condition not met

### Prompt For this compound, is Log 1/MIC lower than 1? CCSc1cccc2nc(N)nc(N)c12
### Response condition not met

### Prompt In the record for Nc1nc(N)c2c(S(=O)(=O)c3ccccc3)cccc2n1 , is Log 1/MIC less than 1?
### Response condition met

### Prompt In the record for Nc1nc(N)c2c(OCc3ccccc3)cccc2n1 , is Log 1/MIC less than 1?
### Response condition met

----------
logP listing for selected compounds.
- EXPERIMENT DESCRIPTION: Partition coefficient (logP)
- Type: physicochemical
- SETTINGS: octanol/water
Answer field: number only, no words.

Record CCCOc1cccc2nc(N)nc(N)c12 , field logP: 2.26

# compound CSc1cccc2nc(N)nc(N)c12 ; its logP = 1.81

Reported logP of Nc1nc(N)c2c(Br)cccc2n1 : 1.91

Note to self: logP recorded for Nc1nc(N)c2c(I)cccc2n1 was 2.12

Just so you know, measured logP for Nc1nc(N)c2c(N3CCCCC3)cccc2n1 came out at 2.66

Lab note: NC(=O)c1cccc2nc(N)nc(N)c12 gave logP of -0.33

Value of measured logP for the entry CCCSc1cccc2nc(N)nc(N)c12 : 2.85

The reported logP of the compound Nc1nc(N)c2c(S(=O)(=O)c3ccccc3)cccc2n1 was 2.14

Record CCCNC(=O)c1cccc2nc(N)nc(N)c12 , field logP: 0.83

Record summary for Nc1nc(N)c2c([N+](=O)[O-])cccc2n1 : reported logP = 1.19

In plain terms, Nc1nc(N)c2c(F)cccc2n1 has a documented logP of 1.19

----------
- EXPERIMENT DESCRIPTION: Partition coefficient (logP)
- Assay type: physicochemical
- SETTINGS: octanol/water
Classification field: YES = logP at or over 2; NO = logP under 2.

### Prompt Is logP at least 2? Consider COc1cccc2nc(N)nc(N)c12
### Response NO

### Prompt Say whether Nc1nc(N)c2c(OCc3ccccc3)cccc2n1 shows logP of 2 or more.
### Response YES

### Prompt Could you please find out whether Nc1nc(N)c2c(Cl)cccc2n1 has logP that meets 2 or exceeds it?
### Response NO

### Prompt Is it the case that Cc1cccc2nc(N)nc(N)c12 has logP reaching or exceeding 2?
### Response NO

### Prompt # check: logP of CS(=O)(=O)c1cccc2nc(N)nc(N)c12 is greater than or equal to 2
### Response NO

Next up:
### Prompt Determine whether measured logP meets or exceeds 2 for Nc1nc(N)c2c(N3CCOCC3)cccc2n1
### Response NO

----------
The reader will find reported LD50 values listed item by item below.
- EXPERIMENT DESCRIPTION: Acute toxicity determined in mice by an LD50 test when administered intraperitoneally
- Format: organism-based
- SETTINGS: mouse, in vivo, ip

These solved cases illustrate the format of a correct answer.
Per the record, CCOc1cccc2nc(N)nc(N)c12 has LD50 of ~100 mg/kg

Reported LD50 ( Nc1nc(N)c2c(F)cccc2n1 ) = 100 mg/kg

Item: COC(=O)c1cccc2nc(N)nc(N)c12 | LD50: 68 mg/kg

What the record says about COc1cccc2nc(N)nc(N)c12 : LD50 is 137 mg/kg

Data point: Nc1nc(N)c2c(Cl)cccc2n1 ; LD50 = 100 mg/kg

Entry Nc1ncnc2ccccc12 , LD50 reported as 205 mg/kg

We next turn to a different molecule, shown below.
// field: LD50; key: Cc1cccc2nc(N)nc(N)c12 ; value = ~100 mg/kg

----------
- System: Escherichia coli
- EXPERIMENT DESCRIPTION: Antibacterial activity (10 e-6 log (1/MIC) towards Escherichia coli
- Type: functional
Decide by Log 1/MIC: equal to or exceeding 0.7 means Met, less means Not met.

Solved cases below.
### Prompt Item CCOc1cccc2nc(N)nc(N)c12 with Log 1/MIC of 0.7 or above?
### Response Met

### Prompt Has Nc1nc(N)c2c(Oc3ccccc3)cccc2n1 a recorded Log 1/MIC greater than or equal to 0.7?
### Response Not met

### Prompt Check the entry Nc1nc(N)c2c(CCc3ccccc3)cccc2n1 : does Log 1/MIC equal or exceed 0.7?
### Response Met

### Prompt Is the recorded value of Log 1/MIC equal to or greater than 0.7 for this molecule? CCCCOc1cccc2nc(N)nc(N)c12
### Response Not met

### Prompt Decide: Log 1/MIC of Nc1nc(N)c2c(I)cccc2n1 >= 0.7?
### Response Met

Continuing:
### Prompt Textbook exercise: given the entry Nc1nc(N)c2c(Br)cccc2n1 , state whether its Log 1/MIC is greater than or equal to 0.7.
### Response Met

### Prompt Dear colleague, could you confirm whether CSc1cccc2nc(N)nc(N)c12 has Log 1/MIC at or above 0.7?
### Response Met

### Prompt Decide: Log 1/MIC of CCc1cccc2nc(N)nc(N)c12 >= 0.7?
### Response Met

----------
Let's look at some molecules and their measured Log 1/MIC.
- Test system: Escherichia coli
- EXPERIMENT DESCRIPTION: Antibacterial activity (10 e-6 log (1/MIC) towards Escherichia coli
- Type: functional
// return just the number, without any unit appended

Solved entries:
Result for Nc1nc(N)c2c(N)cccc2n1 , tested on Escherichia coli, Log 1/MIC: 0.3

Recorded Log 1/MIC for CC(C)Oc1cccc2nc(N)nc(N)c12 on Escherichia coli was 0.8

Item: Nc1nc(N)c2c(F)cccc2n1 | System: Escherichia coli | Log 1/MIC: 1.7

Continuing:
Let me check: Nc1nc(N)c2c(N3CCOCC3)cccc2n1 , system Escherichia coli, measured Log 1/MIC is -0.6

----------
- EXPERIMENT DESCRIPTION: Partition coefficient (logP)
- Type: physicochemical
- SETTINGS: octanol/water
logP values for the compounds below.
Give the figure by itself; no unit, no explanation.

Here is how some compounds turned out for logP.
Lab note: measured logP of CC(C)Oc1cccc2nc(N)nc(N)c12 was 2.05

Per the record, CCc1cccc2nc(N)nc(N)c12 has logP of 1.69

Reported logP for Nc1nc(N)c2c(N)cccc2n1 was 0.3

Summary for this compound, CCOc1cccc2nc(N)nc(N)c12 : logP is 1.69

// sample Nc1nc(N)c2c(Oc3ccccc3)cccc2n1 , its logP was 2.78

Consider Nc1nc(N)c2ccccc2n1 . Its measured logP is 1.01

Form: compound = CN(C)c1cccc2nc(N)nc(N)c12 ; logP = 1.65

The compound listed as CCSc1cccc2nc(N)nc(N)c12 has a reported logP of 2.27

Now examine the next entry.
Memo: CCCCOc1cccc2nc(N)nc(N)c12 , reported logP: 2.81
